Would you kindly list Kd for each of these binders?
- measuredOn: T1, Vacuolar Protein Sorting-Associated 26A (AtVPS26A) (Arabidopsis thaliana, UniProt Q9FJD0 1-302)
- T1 chain: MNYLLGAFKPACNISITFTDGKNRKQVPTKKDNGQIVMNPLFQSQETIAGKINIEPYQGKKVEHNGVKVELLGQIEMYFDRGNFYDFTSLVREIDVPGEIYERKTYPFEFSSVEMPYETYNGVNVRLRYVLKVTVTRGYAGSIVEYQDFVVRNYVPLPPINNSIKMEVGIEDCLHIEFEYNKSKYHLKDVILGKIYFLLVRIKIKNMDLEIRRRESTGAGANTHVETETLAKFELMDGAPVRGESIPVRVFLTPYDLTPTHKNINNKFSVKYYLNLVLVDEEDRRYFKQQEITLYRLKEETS
- runDescription: ITC
Answers are plain numbers, in nM.

# binder, u, Kd
rows = [
    ("GGGAMHKEGYSFSSPRLSSVQGSDDPFYQEHMSKSSRCSSPG (N-terminal GGG added to the peptide; AtRGS1 C-terminal tail, Arabidopsis thaliana, UniProt Q8H1F2, residues A421-G459; Purity 99%; also called unphosphorylated C-tail; source: synthetic peptide (UNC Peptide Core Facility)) [AtRGS1 C tail peptide (A421-G459), unphosphorylated]", "nM", 317),
]

# Kd of AtRGS1 RGS domain plus C-terminal tail (residues 284-459) (domain or fragment) KEEFRPVDPNEPLDKLLLNKRFRHSFMEFADSCYAGETLHFFEEVYEHGKIPEDDSIRRIYMARHIMEKFIVAGAEMELNLSHKTRQEILTTQDLTHTDLFKNALNEVMQLIKMNLVRDYWSSIYFIKFKEEESCHEAMHKEGYSFSSPRLSSVQGSDDPFYQEHMSKSSRCSSPG = 38
